- Run Description: Metabolic stability in rat liver microsomes assessed as half life
- Type: ADME, Microsome
The following molecules are listed with their measured half-life values.
Quantity Kind: half-life (min)

COc1c(O)cc2oc3cc4c(c(O)c3c(=O)c2c1CC=C(C)C)C=CC(C)(C)O4 ... 8.1
COc1c(OCc2ccncc2)cc2oc3cc4c(c(OCc5ccncc5)c3c(=O)c2c1CC=C(C)C)C=CC(C)(C)O4 ... 16
COc1c(OCC2CC2)cc2oc3cc4c(c(OCc5ccncc5)c3c(=O)c2c1CC=C(C)C)C=CC(C)(C)O4 ... 445
CCOc1cc2oc3cc4c(c(OCc5ccncc5)c3c(=O)c2c(CC=C(C)C)c1OC)C=CC(C)(C)O4 ... 2.98
COc1c(OCc2ccccc2)cc2oc3cc4c(c(OCc5ccncc5)c3c(=O)c2c1CC=C(C)C)C=CC(C)(C)O4 ... 315
COc1c(OC(C)C)cc2oc3cc4c(c(OCc5ccncc5)c3c(=O)c2c1CC=C(C)C)C=CC(C)(C)O4 ... 78
COc1c(OCc2ccc(F)cc2)cc2oc3cc4c(c(OCc5ccncc5)c3c(=O)c2c1CC=C(C)C)C=CC(C)(C)O4 ... 33
COc1c(O)cc2oc3cc4c(c(OCc5ccncc5)c3c(=O)c2c1CC=C(C)C)C=CC(C)(C)O4 ... 6.7
COc1cc2oc3cc4c(c(OCc5ccncc5)c3c(=O)c2c(CC=C(C)C)c1OC)C=CC(C)(C)O4 ... 2.08
COc1c(OCc2ccccn2)cc2oc3cc4c(c(OCc5ccccn5)c3c(=O)c2c1CC=C(C)C)C=CC(C)(C)O4 ... 3
COc1c(O)cc2oc3cc4c(c(OCc5ccccn5)c3c(=O)c2c1CC=C(C)C)C=CC(C)(C)O4 ... 0.9

* * *

- Assay System: Cytochrome P450 2C9 (Homo sapiens, UniProt P11712)
- Sequence (P11712 whole entry): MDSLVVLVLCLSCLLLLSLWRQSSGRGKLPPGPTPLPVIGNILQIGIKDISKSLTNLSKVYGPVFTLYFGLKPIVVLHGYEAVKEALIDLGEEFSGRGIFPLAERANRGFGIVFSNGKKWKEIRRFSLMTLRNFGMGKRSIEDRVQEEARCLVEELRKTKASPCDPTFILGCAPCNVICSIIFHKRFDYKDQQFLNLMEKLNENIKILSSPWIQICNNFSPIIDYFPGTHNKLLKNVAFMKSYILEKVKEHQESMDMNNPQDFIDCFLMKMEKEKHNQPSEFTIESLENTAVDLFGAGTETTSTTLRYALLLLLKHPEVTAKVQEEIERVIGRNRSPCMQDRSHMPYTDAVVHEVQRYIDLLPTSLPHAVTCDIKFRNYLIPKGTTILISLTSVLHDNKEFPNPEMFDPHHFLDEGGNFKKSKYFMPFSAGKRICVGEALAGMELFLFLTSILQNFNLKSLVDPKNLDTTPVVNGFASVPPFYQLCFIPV
- Run Description: Inhibition of human CYP2C9 in human hepatocytes
Quantity Kind: IC50 (µM)

COc1c(OCC2CC2)cc2oc3cc4c(c(OCc5ccncc5)c3c(=O)c2c1CC=C(C)C)C=CC(C)(C)O4 ... 4.1

* * *

- Assay System: cGMP-inhibited 3',5'-cyclic phosphodiesterase 3A (Homo sapiens)
- Sequence (Q14432 whole entry, the tested form may be a part): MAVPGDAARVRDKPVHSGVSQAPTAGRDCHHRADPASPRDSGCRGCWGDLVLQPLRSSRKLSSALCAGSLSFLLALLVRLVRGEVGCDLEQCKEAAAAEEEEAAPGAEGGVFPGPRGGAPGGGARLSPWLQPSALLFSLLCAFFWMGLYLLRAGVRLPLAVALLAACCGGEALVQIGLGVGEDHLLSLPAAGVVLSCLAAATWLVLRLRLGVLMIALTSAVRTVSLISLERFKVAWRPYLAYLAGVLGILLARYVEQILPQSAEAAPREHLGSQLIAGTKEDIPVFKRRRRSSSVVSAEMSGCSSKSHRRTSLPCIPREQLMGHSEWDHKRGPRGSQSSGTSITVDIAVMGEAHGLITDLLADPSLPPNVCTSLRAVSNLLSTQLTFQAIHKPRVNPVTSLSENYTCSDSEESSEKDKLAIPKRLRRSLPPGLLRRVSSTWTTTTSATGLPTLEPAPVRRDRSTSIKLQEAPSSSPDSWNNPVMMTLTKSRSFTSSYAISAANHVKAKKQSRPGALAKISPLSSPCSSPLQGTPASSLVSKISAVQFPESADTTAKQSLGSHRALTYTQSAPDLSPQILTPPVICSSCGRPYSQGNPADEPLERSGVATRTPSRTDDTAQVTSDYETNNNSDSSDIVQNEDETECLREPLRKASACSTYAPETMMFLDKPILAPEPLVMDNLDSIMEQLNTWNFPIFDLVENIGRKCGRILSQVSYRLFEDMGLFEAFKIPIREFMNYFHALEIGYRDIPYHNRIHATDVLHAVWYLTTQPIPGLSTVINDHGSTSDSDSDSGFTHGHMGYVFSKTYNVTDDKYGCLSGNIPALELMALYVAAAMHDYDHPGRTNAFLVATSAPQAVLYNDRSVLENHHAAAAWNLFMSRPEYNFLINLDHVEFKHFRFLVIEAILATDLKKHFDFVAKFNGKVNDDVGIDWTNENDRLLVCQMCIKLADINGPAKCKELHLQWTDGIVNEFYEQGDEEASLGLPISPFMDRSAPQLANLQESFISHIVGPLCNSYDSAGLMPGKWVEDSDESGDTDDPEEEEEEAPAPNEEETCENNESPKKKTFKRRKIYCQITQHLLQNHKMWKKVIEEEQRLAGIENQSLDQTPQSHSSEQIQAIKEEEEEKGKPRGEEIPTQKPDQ
- Run Description: Inhibition of recombinant PDE3A (679 to 1087 residues) (unknown origin) expressed in Escherichia coli BL21 using [3H]cAMP as substrate incubated for 15 mins by liquid scintillation method
pIC50: −log10 of the molar value.
Quantity Kind: pIC50

COc1c(OCC2CC2)cc2oc3cc4c(c(OCc5ccncc5)c3c(=O)c2c1CC=C(C)C)C=CC(C)(C)O4 ... < 5.00

* * *

- Run Description: Volume of distribution at steady state in Sprague-Dawley rat at 2.5 mg/kg, iv
- Assay type: ADME, organism-based
- Measurement Conditions: in vivo, read-out: Vdss
Quantity Kind: Vd (L/kg)

COc1c(OCC2CC2)cc2oc3cc4c(c(OCc5ccncc5)c3c(=O)c2c1CC=C(C)C)C=CC(C)(C)O4 ... 0.673

* * *

- Assay System: cAMP and cAMP-inhibited cGMP 3',5'-cyclic phosphodiesterase 10A (Homo sapiens, UniProt Q9Y233)
- Sequence (Q9Y233 whole entry, the tested form may be a part): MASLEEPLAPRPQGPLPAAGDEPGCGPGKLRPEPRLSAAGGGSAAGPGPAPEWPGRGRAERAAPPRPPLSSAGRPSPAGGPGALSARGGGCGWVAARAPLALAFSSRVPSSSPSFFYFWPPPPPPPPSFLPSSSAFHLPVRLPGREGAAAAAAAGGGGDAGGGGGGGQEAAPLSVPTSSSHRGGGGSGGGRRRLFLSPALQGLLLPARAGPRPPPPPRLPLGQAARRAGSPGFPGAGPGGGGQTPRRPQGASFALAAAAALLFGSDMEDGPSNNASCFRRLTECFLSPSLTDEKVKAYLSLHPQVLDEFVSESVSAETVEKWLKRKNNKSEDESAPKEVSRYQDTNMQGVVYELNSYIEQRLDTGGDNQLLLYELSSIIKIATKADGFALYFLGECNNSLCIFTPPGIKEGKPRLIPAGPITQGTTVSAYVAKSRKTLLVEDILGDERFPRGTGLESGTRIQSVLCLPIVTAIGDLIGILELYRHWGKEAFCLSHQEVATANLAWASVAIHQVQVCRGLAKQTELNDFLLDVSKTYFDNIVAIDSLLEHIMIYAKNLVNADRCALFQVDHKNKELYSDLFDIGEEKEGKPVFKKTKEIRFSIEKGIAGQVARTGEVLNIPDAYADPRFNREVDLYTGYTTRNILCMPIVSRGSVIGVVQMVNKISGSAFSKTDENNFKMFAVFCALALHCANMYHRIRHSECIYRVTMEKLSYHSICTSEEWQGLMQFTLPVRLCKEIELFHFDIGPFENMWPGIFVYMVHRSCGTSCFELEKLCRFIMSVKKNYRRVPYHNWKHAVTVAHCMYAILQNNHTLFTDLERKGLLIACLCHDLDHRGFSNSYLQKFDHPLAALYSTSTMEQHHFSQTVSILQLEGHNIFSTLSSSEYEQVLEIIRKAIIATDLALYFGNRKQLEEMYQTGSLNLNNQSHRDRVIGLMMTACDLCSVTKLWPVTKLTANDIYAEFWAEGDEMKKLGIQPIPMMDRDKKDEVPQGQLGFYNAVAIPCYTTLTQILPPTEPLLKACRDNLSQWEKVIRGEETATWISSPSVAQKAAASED
- Run Description: Inhibition of recombinant PDE10A2 (449 to 770 residues) (unknown origin) expressed in Escherichia coli BL21 using [3H]cAMP as substrate incubated for 15 mins by liquid scintillation method
pIC50: −log10 of the molar value.
Quantity Kind: pIC50

COc1c(OCC2CC2)cc2oc3cc4c(c(OCc5ccncc5)c3c(=O)c2c1CC=C(C)C)C=CC(C)(C)O4 ... 5.99
